Experiment: Lethal dose in mice (LD50)
Assay type: toxicity, organism-based
Details: mouse, in vivo
reported.endpoint: LD50 (mg/kg)
Numeric only. Scale: mg/kg

>  <smi>
Br.CC(=O)SCCNC(=O)[C@H](C)N

>  <unit.of.measure>
mg/kg

>  <LD50>
1500

$$$$
>  <smi>
CC(=O)SCCN.Cl

>  <unit.of.measure>
mg/kg

>  <LD50>
500

$$$$

Shift focus to the following entry.
Prompt line: Supply LD50 value. Item: CC(=O)SCCNC(=O)CN.O=C(O)C(F)(F)F
Response line: 1500

Values from ChEMBL document CHEMBL1123267
